target: T1, neuropilin-1 (NRP1) on HEK293 cells overexpressing NRP1 (UniProt O14786 22-923, limits assumed); test: flow cytometry, HEK293-NRP1 vs HEK293
T1 construct: whole, on cells
100 nM FACS (MFI Ratio) for assorted binders
Write the number on its own, no unit after it.

Some entries whose results are on file:
Recorded 100 nM FACS (MFI Ratio) for NRP1-232 (antibody, IgG2, V domains shown) VH: EVQLLESGGGLVQPGGSLRLSCAASGFTFTNYAMNWVRQAPGKGLEWVSSISGSGGRTDYADSVKGRFTISRDNSKNTLYLQMNSLRAEDTAVYYCARLKRGGTNLVRKATRYQFYGMDAWGQGTLVTVSS VL: DIQMTQSPSSLSASVGDRVTITCRASQNIAKYLNWYQQKPGKAPKLLIYSASNLQSGVPSRFSGSGSGTDFTLTISSLQPEDFATYYCQQNYKTPYTFGGGTKVEIK , please?
1.3

Recorded 100 nM FACS (MFI Ratio) for NRP1-92 (VHH) VHH: EVQLVESGGGLVQPGGSLRLSCAASGLLFSSYDMGWFRQAPGKEREFVAAITSGGRKNYADSVKGRFTISADNSKNTAYLQMNSLKPEDTAVYYCARYDYSGGLTFDYWGQGTLVTVSS , please?
6

Recorded 100 nM FACS (MFI Ratio) for NRP1-225 (antibody, IgG2, V domains shown) VH: EVQLLESGGGLVQPGGSLRLSCAASGFMFSRYAMSWVRQAPGKGLEWVSAISGSGDTTHYADSVKGRFTISRDNSKNTLYLQMNSLRAEDTAVYYCARGGRGLRLQVPIVRHARKGKDYYMDVWGQGTLVTVSS VL: DIQMTQSPSSLSASVGDRVTITCRASQSIGSHLSWYQQKPGKAPKLLIYRASSLQTGVPSRFSGSGSGTDFTLTISSLQPEDFATYYCLQTYSVPLTFGGGTKVEIK , please?
1.1

Recorded 100 nM FACS (MFI Ratio) for NRP1-52 (VHH) VHH: EVQLVESGGGLVQPGGSLRLSCAASGFTFSWYPMGWFRQAPGKEREFVAAISPSGSTDYADSVKGRFTISADNSKNTAYLQMNSLKPEDTAVYYCARDPNYDFWSGYYSSEHYFDYWGQGTLVTVSS , please?
10.7

Continuing:
Recorded 100 nM FACS (MFI Ratio) for NRP1-289 (antibody, IgG2, V domains shown) VH: EVQLLESGGGLVQPGGSLRLSCAASGFTISSSAMGWVRQAPGKGLEWVSALSGSGGSKYYADSVKGRFTISRDNSKNTLYLQMNSLRAEDTAVYYCAKEALPRASRRAAAVRYFHHWGQGTLVTVSS VL: DIQMTQSPSSLSASVGDRVTITCRASQNIVRYLNWYQQKPGKAPKLLIYTASNLQTGVPSRFSGSGSGTDFTLTISSLQPEDFATYYCQESYSRTFGGGTKVEIK , please?
0.9

Recorded 100 nM FACS (MFI Ratio) for NRP1-16 (VHH) VHH: EVQLVESGGGLVQPGGSLRLSCAASGRTFSRYVMGWFRQAPGKEREWVATSGTGYGATYADSVKGRFTISADNSKNTAYLQMNSLKPEDTAVYYCARGWLRTGWSIWGQGTLVTVSS , please?
15.9

Recorded 100 nM FACS (MFI Ratio) for NRP1-1 (VHH) VHH: EVQLVESGGGLVQPGGSLRLSCAASGRTFRRYAMGWFRQAPGKEREFVASISRSGTLTRYADSVKGRFTISADNSKNTAYLQMNSLKPEDTAVYYCAAKTGAFSYGSLWWMSRAYNWGQGTLVTVSS , please?
15.4
